Origin of measurements: patent US20060069132A1

- System: kochia
- protocol_notes: Test C pre-/postemergence herbicide test
- Type: in vivo, Kochia scoparia
- setup_conditions: Preemergence, 500 g ai/ha; scale 0 to 100, 0 no effect, 100 complete control
measured_quantity: Kochia plant response rating
Give your answer as a number; write no unit.

Consider the worked cases shown below.
CCn1nc(C(C)(C)C)cc1C(=O)Nc1cccc2c1CN(C)C2=O ... 100
CCOC(=O)c1cc(NC(=O)c2cc(C(C)(C)C)nn2CC)ccc1OC ... 100
C#CCNC(=O)c1cccc(NC(=O)c2cc(C(C)(C)C)nn2CC)c1 ... 40
C#CCn1nc(C(C)(C)C)cc1C(=O)Nc1cccc(C(=O)NCC)c1 ... 100

Reported Kochia plant response rating (kochia) for entry CCn1nc(C(C)(C)C)cc1C(=O)Nc1cccc(SC(F)(F)F)c1 is 100
